Tested on: RAW264.7
Test: Antiinflammatory activity in mouse RAW264.7 cells assessed as inhibition of LPS-induced nitric oxide production incubated for 1 hr prior to LPS-challenge measured after 20 hrs by Griess method
Type: functional, cell-based
pIC50: −log10 of the molar value.
Measured pIC50 accompanies every entry in the list below.
observed-property: pIC50

smi: Cc1c(O)c(C(=O)C(C)C)c(O)c2c1oc1c(C)c(O)c(C(=O)C(C)C)c(O)c12
target-desc: RAW264.7
result-value: 5.47
//
smi: CC[C@H](C)C(=O)c1c(O)c(C)c2oc3c(C)c(O)c(C(=O)CC(C)C)c(O)c3c2c1O
target-desc: RAW264.7
result-value: 5.92
//
smi: CC[C@H](C)C(=O)c1c(O)c(C)c(O)c2c1oc1c(C(=O)[C@@H](C)CC)c(O)c(C)c(O)c12
target-desc: RAW264.7
result-value: 5.30
//
smi: CC[C@H](C)C(=O)c1c(O)c(C)c(O)c2c1oc1c(C(=O)C(C)C)c(O)c(C)c(O)c12
target-desc: RAW264.7
result-value: 5.36
//
smi: Cc1c(O)c(C(=O)C(C)C)c2oc3c(C(=O)C(C)C)c(O)c(C)c(O)c3c2c1O
target-desc: RAW264.7
result-value: 4.05
//
smi: CC[C@H](C)C(=O)c1c(O)c(C)c2oc3c(C)c(O)c(C(=O)C(C)C)c(O)c3c2c1O
target-desc: RAW264.7
result-value: 6.22

The reported measurements were obtained from ChEMBL document CHEMBL2146371.
